// % activity lookup, one value per entry
# ASSAY_SYSTEM: CHK2(I157T) (h) (Homo sapiens, UniProt O96017, I157T)
# Construct: purchased Millipore
# Sequence (O96017 whole entry I157T): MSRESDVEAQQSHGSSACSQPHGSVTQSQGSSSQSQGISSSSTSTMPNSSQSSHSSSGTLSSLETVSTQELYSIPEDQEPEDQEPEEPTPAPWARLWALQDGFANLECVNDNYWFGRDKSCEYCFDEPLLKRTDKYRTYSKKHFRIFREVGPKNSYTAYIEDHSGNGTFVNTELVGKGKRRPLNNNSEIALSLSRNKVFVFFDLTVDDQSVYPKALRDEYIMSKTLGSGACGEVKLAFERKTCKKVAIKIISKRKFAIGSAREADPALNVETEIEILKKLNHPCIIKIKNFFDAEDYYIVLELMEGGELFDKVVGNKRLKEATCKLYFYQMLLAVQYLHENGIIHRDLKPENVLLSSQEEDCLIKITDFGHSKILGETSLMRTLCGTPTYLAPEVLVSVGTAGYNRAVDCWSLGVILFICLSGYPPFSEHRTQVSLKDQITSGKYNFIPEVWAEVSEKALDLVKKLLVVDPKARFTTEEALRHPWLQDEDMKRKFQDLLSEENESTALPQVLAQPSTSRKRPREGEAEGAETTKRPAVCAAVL
# ASSAY_PROTOCOL: Kinase Profiling Assay
# Format: biochemical
# RUN_CONDITIONS: 100 μM
PROPERTY_LABEL: % activity (%)

- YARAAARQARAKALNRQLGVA (Mammalian) [MMI-0200]: 85
- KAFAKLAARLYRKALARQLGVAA [MMI-0400]: 41
- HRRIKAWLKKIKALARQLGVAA (Mammalian) [MMI-0500]: 3
- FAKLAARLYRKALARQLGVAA [MMI-0300]: 43

Origin of measurements: patent US10500249B2
